Where do these numbers come from? They come from paper PMC7265341.

- measurementTarget: CDK8/Cyclin C (Homo sapiens)
- Sequence (P49336 whole entry): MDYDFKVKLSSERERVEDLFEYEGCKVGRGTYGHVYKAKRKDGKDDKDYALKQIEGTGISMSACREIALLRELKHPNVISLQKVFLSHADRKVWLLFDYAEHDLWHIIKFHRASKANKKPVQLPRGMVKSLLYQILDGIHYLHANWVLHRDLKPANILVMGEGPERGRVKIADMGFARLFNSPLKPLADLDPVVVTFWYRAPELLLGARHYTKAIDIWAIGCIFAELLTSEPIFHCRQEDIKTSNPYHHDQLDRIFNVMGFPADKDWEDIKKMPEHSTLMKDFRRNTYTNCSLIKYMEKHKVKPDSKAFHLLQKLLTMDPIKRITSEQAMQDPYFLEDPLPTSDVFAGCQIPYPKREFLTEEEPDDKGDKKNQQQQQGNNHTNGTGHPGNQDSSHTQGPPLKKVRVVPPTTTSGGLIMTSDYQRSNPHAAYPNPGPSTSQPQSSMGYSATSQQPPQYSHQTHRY
- Sequence (P24863 whole entry partner): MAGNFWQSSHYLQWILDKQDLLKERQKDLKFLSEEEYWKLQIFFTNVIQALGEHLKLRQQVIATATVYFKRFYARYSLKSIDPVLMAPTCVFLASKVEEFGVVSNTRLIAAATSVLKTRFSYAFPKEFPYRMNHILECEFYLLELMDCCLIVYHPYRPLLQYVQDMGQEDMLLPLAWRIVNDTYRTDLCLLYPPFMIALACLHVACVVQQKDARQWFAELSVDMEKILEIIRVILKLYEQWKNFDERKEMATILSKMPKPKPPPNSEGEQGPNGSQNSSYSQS
- experimentalDetails: NanoBRET live-cell target engagement, NanoLuc-CDK8/Cyclin C in HEK-293
- Type: binding
- measurementConditions: IC50 (nM), CDK8/C; experiment 2
Parameter: IC50. Scope: all listed entries.
State just the number; it will be interpreted in nM.

{"compound": "COC1CN(C(=O)c2ccc3c(N)ncc(-c4ccc(-c5cnn(C)c5)cc4)c3n2)C1 [CCT251545 analog]", "measurementTarget": "CDK8/Cyclin C (Homo sapiens)", "IC50, nM": 2}

The reported value for Cn1cc(-c2ccc(-c3cncc(Cl)c3N3CCC4(CCNC4=O)CC3)cc2)cn1 [CCT251545] in terms of IC50 is 2

###

- measurementTarget: CDK10/Cyclin L2 (Homo sapiens, UniProt Q15131)
- Sequence (Q15131 whole entry): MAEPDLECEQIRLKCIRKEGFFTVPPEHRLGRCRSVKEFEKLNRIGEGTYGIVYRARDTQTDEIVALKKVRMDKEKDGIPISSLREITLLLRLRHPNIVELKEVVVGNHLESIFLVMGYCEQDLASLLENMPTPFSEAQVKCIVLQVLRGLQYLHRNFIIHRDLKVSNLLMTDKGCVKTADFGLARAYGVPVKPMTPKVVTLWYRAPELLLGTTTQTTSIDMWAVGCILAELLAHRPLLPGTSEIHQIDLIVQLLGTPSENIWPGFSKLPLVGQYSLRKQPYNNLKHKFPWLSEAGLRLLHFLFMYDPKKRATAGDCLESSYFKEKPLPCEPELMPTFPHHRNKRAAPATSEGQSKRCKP
- experimentalDetails: NanoBRET live-cell target engagement, CDK10-NanoLuc/Cyclin L2 in HEK-293
- measurementConditions: read-out: Inhibition at 10µM (%) Average, CDK10/L2; 10µM; average of replicates
endpointName: inhibition at 10 µM

Examples with answers:
{"molecule": "COc1cc(F)ccc1-c1ncnc(Nc2cccc(C[S@](C)(=N)=O)c2)n1", "endpointName": "inhibition at 10 µM", "measValue": "6.3%"}
{"molecule": "COc1cc(F)ccc1-c1cc(Nc2cc(CS(C)(=N)=O)ccn2)ncc1F (stereo not drawn)", "endpointName": "inhibition at 10 µM", "measValue": "45%"}

Input "Cc1ncc(-c2ccnc(Nc3ccc(S(C)(=O)=O)cc3)n2)n1C(C)C" . Output inhibition at 10 µM: 64.8%

inhibition at 10 µM recorded for this molecule, "C[C@H]1CC[C@H](n2c3cnccc3c3cnc(Nc4ccc5c(n4)CCN(C(=O)CO)C5)nc32)CC1" , is 2.1%

What the record says about "CCN1CCN(Cc2ccc(Nc3ncc(F)c(-c4cc(F)c5nc(C)n(C(C)C)c5c4)n3)nc2)CC1" : inhibition at 10 µM is 20.9%

Lab book: inhibition at 10 µM of "CCN1CCN(Cc2ccc(NC(=O)Nc3ccc(Oc4cc(NC)ncn4)cc3)cc2C(F)(F)F)CC1" noted as 84.1%

The molecule listed as "CCCCOc1c(C(=O)c2c(F)cc(C)cc2F)c[nH]c2nncc1-2" has a reported inhibition at 10 µM of 11.1%

Reported inhibition at 10 µM for "CC(C)c1cnn2c(NCc3ccccc3)cc(NCCCCCCN)nc12" was 31.2%

The molecule "O=C(NC1CCNCC1)c1[nH]ncc1NC(=O)c1c(Cl)cccc1Cl" showed inhibition at 10 µM equal to 77%

###

Each record here notes measured Inhibition at 10µM (%) Average.
- measurementTarget: CDK3/Cyclin E1 (Homo sapiens)
- Sequence (Q00526 whole entry): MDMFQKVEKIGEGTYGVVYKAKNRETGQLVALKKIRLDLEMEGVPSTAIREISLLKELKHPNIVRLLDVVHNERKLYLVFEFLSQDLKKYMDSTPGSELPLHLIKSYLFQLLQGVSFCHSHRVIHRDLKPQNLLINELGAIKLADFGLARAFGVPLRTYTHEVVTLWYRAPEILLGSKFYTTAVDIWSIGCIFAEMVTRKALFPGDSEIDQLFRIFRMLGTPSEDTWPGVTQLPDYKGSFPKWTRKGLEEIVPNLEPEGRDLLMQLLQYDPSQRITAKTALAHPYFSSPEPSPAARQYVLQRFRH
- Sequence (P24864 whole entry partner): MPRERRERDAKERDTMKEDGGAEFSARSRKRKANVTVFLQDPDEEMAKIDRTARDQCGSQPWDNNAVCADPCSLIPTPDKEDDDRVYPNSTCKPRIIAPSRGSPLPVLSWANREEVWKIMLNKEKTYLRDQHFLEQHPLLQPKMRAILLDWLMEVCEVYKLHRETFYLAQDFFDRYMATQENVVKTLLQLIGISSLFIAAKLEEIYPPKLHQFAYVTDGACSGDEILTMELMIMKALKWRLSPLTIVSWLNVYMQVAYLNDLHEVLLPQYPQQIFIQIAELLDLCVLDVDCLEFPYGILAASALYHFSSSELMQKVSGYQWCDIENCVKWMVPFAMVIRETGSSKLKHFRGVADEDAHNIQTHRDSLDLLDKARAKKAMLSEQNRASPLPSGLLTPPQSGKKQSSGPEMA
- experimentalDetails: NanoBRET live-cell target engagement, CDK3-NanoLuc/Cyclin E1 in HEK-293
- Assay type: binding
- measurementConditions: CDK3/E1; 10µM; average of replicates
Use % as the unit, but write only the number.

Example compounds with recorded Inhibition at 10µM (%) Average:
{"compound": "CNC1CCN(C(=O)c2ccc(Nc3ncc(F)c(-c4cnc(C)n4C(C)C)n3)cc2)C1 (stereo not shown)", "Inhibition at 10µM (%) Average": 98.9}
{"compound": "O=C(Nc1c[nH]nc1-c1ccccn1)c1nn(C2CCNCC2)cc1Cl", "Inhibition at 10µM (%) Average": 3.9}
{"compound": "CCC(CO)Nc1nc(Nc2cccc(-c3ccccn3)c2)c2ncn(C(C)C)c2n1.Cl.O [(R) - DRF053]", "Inhibition at 10µM (%) Average": 72.0}

Note: attention shifts to another entry.
compound "CC(C)c1cnn2c(NCc3ccccc3)cc(N[C@@H](CO)[C@H](O)CO)nc12" , Inhibition at 10µM (%) Average observed: 97.3
